Recorded measurements of CB1954 (product formed / activity), one per entry
- assay.method.text: Nitroreductase enzyme assay with CB 1954 as substrate (HPLC)
- Type: biochemical
- condition.details: Table 2, recombinant B. subtilis enzymes, crude lysates
quantity.name: CB1954 (product formed / activity)

>>> result("Bs YwrO: nitroreductase from B. subtilis, SEQ ID NO: 4 (protein, listed as Bacillus subtilis) MKILVLAVHPHMETSVVNKAWAEELSKHDNITVRDLYKEYPDEAIDVAKEQQLCEEYDRIVFQFPLYWYSSPPLLKKWQDLVLTYGWAFGSEGNALHGKELMLAVSTGSEAEKYQAGGANHYSISELLKPFQATSNLIGMKYLPPYVFYGVNYAAAEDISHSAKRLAEYIQQPFV")
"4HX"
>>> result("YodC: nitroreductase from B. subtilis, SEQ ID NO: 12 (coded for by SEQ ID NO: 11) (protein, listed as Bacillus subtilis) MTNTLDVLKARASVKEYDTNAPISKEELTELLDLATKAPSAWNLQHWHFTVFHSDESKAELLPVAYNQKQIVESSAVVAILGDLKANENGEEVYAELASQGYITDEIKQTLLGQINGAYQSEQFARDSAFLNASLAAMQLMIAAKAKGYDTCAIGGFNKEQFQKQFDISERYVPVMLISIGKAVKPAHQSNRLPLSKVSTWL")
"2/4HX"
